# protocol-notes: Pharmacokinetics after oral administration in rats
# Type: in vivo, Sprague Dawley (SD) rats
# conditions: Sprague-Dawley, rat, plasma, PO 1 mg/kg
# Description: Rats were fasted with water ad libitum for at least 12 h before the oral administration of enavogliflozin. […] Concentrations of enavogliflozin in plasma and tissue homogenate samples were analyzed using an Agilent 6430 triple quadrupole liquid chromatography-mass spectrometry (LC–MS/MS) system (Agilent, Wilmington, DE, USA) following a previously published method. The data were expressed as the means ± standard deviation for the groups. […]
readout-kind: MRT (h)
Reply numerically in h, unit not repeated.

Asked: Quick one: MRT of OC[C@H]1O[C@@H](c2cc(Cc3ccc(C4CC4)cc3)c(Cl)c3c2CCO3)[C@H](O)[C@@H](O)[C@@H]1O ?
Given back: 9.9
